The reported measurements were obtained from PubChem BioAssay (NCI).

system: LOX IMVI melanoma; test: NCI tumour cell line growth inhibition, 48 h
Quick reference: TGI of the listed items.

Solved entries:
Molecule	Readout Name	Experimental Result
Cc1ccc(N(C)S(=O)(=O)c2ccccc2)cc1	TGI	> 100 µM
O=C(Cc1nc2ccc(C(=O)c3ccccc3)cc2[nH]c1=O)C(=O)Nc1ccc(C(F)(F)F)cc1[N+](=O)[O-]	TGI	> 100 µM
CCNC(=S)Nc1c(C#N)c2n(c1C(=O)OCC)CCCCC2	TGI	> 100 µM
COc1ccc(-c2nnc(Nc3nc(O)c(C4=c5cc(OC(F)(F)F)ccc5=NC4=O)s3)o2)cc1	TGI	56.1 µM
N=C1/C(=C/c2ccccc2)C(=O)N=C2SC=NN12	TGI	> 100 µM

[ask] Can you share its TGI? I mean this molecule: N=c1oc2ccc([N+](=O)[O-])cc2cc1C(=O)Nc1ccccn1
[reply] > 100 µM

[ask] Can you share its TGI? I mean this molecule: c1csc(-c2sc(-c3ccsc3)cc2Cc2ccsc2)c1
[reply] > 10 µM

[ask] Can you share its TGI? I mean this molecule: O=[N+]([O-])c1ccc(N/N=C/c2ccccc2O)nc1
[reply] > 100 µM

[ask] Can you share its TGI? I mean this molecule: CC(=O)N1N=C(c2ccccc2Nc2ccccc2C2=NN(C(C)=O)C(c3ccccc3)O2)OC1c1ccccc1 (configuration not stated)
[reply] > 100 µM

[ask] Can you share its TGI? I mean this molecule: O=C1C=CC(=O)c2c1cc1ccccc1c2O
[reply] 9.06 µM

[ask] Can you share its TGI? I mean this molecule: COc1ccc(/C=N/NS(=O)(=O)c2ccc(/C=C3\NC(=O)N(C)C3=O)cc2)cc1
[reply] > 100 µM

[ask] Can you share its TGI? I mean this molecule: COc1ccc2oc(-c3cc4cc(OC)ccc4o3)cc2c1
[reply] > 100 µM

[ask] Can you share its TGI? I mean this molecule: N#CC12CC=C(c3ccccc3)N=C1NC(c1ccccc1)=CC2 (configuration not stated)
[reply] > 100 µM

[ask] Can you share its TGI? I mean this molecule: C[As](C)SCC(NC(=O)CCC(N)C(=O)O)C(=O)NCC(=O)O.Cl.c1ccncc1 (configuration not stated)
[reply] 1.02 µM

[ask] Can you share its TGI? I mean this molecule: C[C@@H](Oc1cc(-c2cnn(C3CC4(CNC4)C3)c2)cnc1N)c1c(Cl)ccc(F)c1Cl
[reply] 6.79 µM

[ask] Can you share its TGI? I mean this molecule: Cc1ccc(NC(C(=O)c2ccccc2)c2ccccc2)cc1 (configuration not stated)
[reply] 39.4 µM

[ask] Can you share its TGI? I mean this molecule: NC(Cc1ccc(O)cc1)C(=O)N/N=C/c1ccc(N(CCCl)CCCl)cc1 (configuration not stated)
[reply] 68.4 µM

====

tested on: DLD-1 colon; experiment: NCI tumour cell line growth inhibition, 48 h
Quick reference: TGI of the listed items.

COC(=O)NN/C=C(\C=Nc1ccccc1)[N+](=O)[O-] > 100 µM
O=c1c2cc(Br)ccc2[nH]c(=S)n1-c1ccccc1 > 100 µM
COc1cc(-c2ccccc2)c(OC)cc1CCl > 100 µM
Cc1nn2c(=O)n(-c3cccc(-n4nnc5c(-c6ccccc6)c(C)nn5c4=O)c3C)nnc2c1-c1ccccc1 91.6 µM

[ask] Can you share its TGI? I mean this compound: CC1(Br)S(=O)(=O)OCCOS1(=O)=O
[reply] > 100 µM
